// values below are reported optical density
- TARGET: T1, Goat anti-Human Kappa
- T1 construct: Positive control of the ELISA; also called biotinylated goat anti-human kappa light chain
- PROTOCOL_TEXT: ELISA, positive control; note: test concentration or dose not given here

BINDER	optical density (OD)
371_D06 (antibody, V domains shown) VH: EVQLLESGGGLVQPGGSLRLSCAASGFTFDDYSMNWVRQAPGKGLEWVAGINYNGGYTSYADSVKGRFTISRDNSKNTLYLQMNSLRAEDTAVYYCARSANWHDTALDYWGQGTLVTVSS VL: DIQMTQSPSSLSASVGDRVTITCRASQSIISYVNWYQQKPGKAPKLLIYAATSRASGVPSRFSGSGSGTDFTLTISSLQPEDFATYYCQQSYSTPLTFGGGTKVEIK	3.32
368_A07 (antibody, V domains shown) VH: EVQLLESGGGLVQPGGSLRLSCAASGFTFSSYSMNWVRQAPGKGLEWVAGINYNSGYTSYADSVKGRFTISRDNSKNTLYLQMNSLRAEDTAVYYCARSANWHDTHLDYWGQGTLVTVSS VL: DIQMTQSPSSLSASVGDRVTITCRASQSILTYLNWYQQKPGKAPKLVIYATTSRASGVPSRFSGSGSGTDFTLTISSLQPEDFATYYCQQSNELPLTFGGGTKVEIK	3.65
367_E04 (antibody, V domains shown) VH: EVQLLESGGGLVQPGGSLRLSCAASGFTFSDYSMNWVRQAPGKGLEWVSSINYNGGYKGYADSVKGRFTISRDNSKNTLYLQMNSLRAEDTAVYYCARSANWHDTHLDYWGQGTLVTVSS VL: DIQMTQSPSSLSASVGDRVTITCRASQSILSYLNWYQQKPGKAPKLLIYAATSRASGVPSRFSGSGSGTDFTLTISSLQPEDFATYYCQQSYESPLTFGGGTKVEIK	3.5
370_G11 (antibody, V domains shown) VH: EVQLLESGGGLVQPGGSLRLSCAASGFTFSSYSMNWVRQAPGKGLEWVASINYNSGYTSYADSVKGRFTISRDNSKNTLYLQMNSLRAEDTAVYYCARSANWHDTHLDYWGQGTLVTVSS VL: DIQMTQSPSSLSASVGDRVTITCRASQSIVSYLNWYQQKPGKAPKLVIYAATSRASGVPSRFSGSGSGTDFTLTISSLQPEDFATYYCQQSYSLPLTFGGGTKVEIK	3.72
370_H01 (antibody, V domains shown) VH: EVQLLESGGGLVQPGGSLRLSCAASGFTFSSYSMNWVRQAPGKGLEWVSGINYNSGYKGYADSVKGRFTISRDNSKNTLYLQMNSLRAEDTAVYYCARSANWHDTALDYWGQGTLVTVSS VL: DIQMTQSPSSLSASVGDRVTITCRASQSIISYLNWYQQKPGKAPKLLIYAVTSRASGVPSRFSGSGSGTDFTLTISSLQPEDFATYYCQQSYDTPLTFGGGTKVEIK	3.65
368_D04 (antibody, V domains shown) VH: EVQLLESGGGLVQPGGSLRLSCAASGFTFSSYGMNWVRQAPGKGLEWVSGINYNGGYKSYADSVKGRFTISRDNSKNTLYLQMNSLRAEDTAVYYCARSANWHDTALDYWGQGTLVTVSS VL: DIQMTQSPSSLSASVGDRVTITCRASQSISTYVNWYQQKPGKAPKLVIYAVTSRHSGVPSRFSGSGSGTDFTLTISSLQPEDFATYYCQQSYDSPLTFGGGTKVEIK	3.67
373_C04 (antibody, V domains shown) VH: EVQLLESGGGLVQPGGSLRLSCAASGFTFSSYSMNWVRQAPGKGLEWVANINYNSGYTGYADSVKGRFTISRDNSKNTLYLQMNSLRAEDTAVYYCARSANWHDTALDYWGQGTLVTVSS VL: DIQMTQSPSSLSASVGDRVTITCRASQSIISYVNWYQQKPGKAPKLVIYAVTSRASGVPSRFSGSGSGTDFTLTISSLQPEDFATYYCQQSYNSPLTFGGGTKVEIK	3.2
369_C03 (antibody, V domains shown) VH: EVQLLESGGGLVQPGGSLRLSCAASGFTFSSYGMNWVRQAPGKGLEWVSNINYNGGYKSYADSVKGRFTISRDNSKNTLYLQMNSLRAEDTAVYYCARSANWHDTALDYWGQGTLVTVSS VL: DIQMTQSPSSLSASVGDRVTITCRASQSILTYLNWYQQKPGKAPKLVIYAATSRASGVPSRFSGSGSGTDFTLTISSLQPEDFATYYCQQSYDSPLTFGGGTKVEIK	3.52
373_D04 (antibody, V domains shown) VH: EVQLLESGGGLVQPGGSLRLSCAASGFTFDSYSMNWVRQAPGKGLEWVSGINYNSGYKGYADSVKGRFTISRDNSKNTLYLQMNSLRAEDTAVYYCARSANWHDTALDYWGQGTLVTVSS VL: DIQMTQSPSSLSASVGDRVTITCRASQSILSYLNWYQQKPGKAPKLLIYAATSRHSGVPSRFSGSGSGTDFTLTISSLQPEDFATYYCQQSYDSPLTFGGGTKVEIK	3.15
368_F03 (antibody, V domains shown) VH: EVQLLESGGGLVQPGGSLRLSCAASGFTFDSYSMNWVRQAPGKGLEWVAGINYNSGYTGYADSVKGRFTISRDNSKNTLYLQMNSLRAEDTAVYYCAKSANWHDTALDYWGQGTLVTVSS VL: DIQMTQSPSSLSASVGDRVTITCRASQSIISYLNWYQQKPGKAPKLVIYAATSRHSGVPSRFSGSGSGTDFTLTISSLQPEDFATYYCQQSYDSPLTFGGGTKVEIK	3.6
